A collection of molecules and their measured pKd
Assay: SPR (Biacore) Protein A mAb capture, Compound A injected
Settings: 37° C., binding to Compound A, apparent affinity, for rank ordering only, read-out: KD
Procedure: The binding of hybridoma expressed 26D5 parent mAb (VH SEQ ID NO: 83 and VL SEQ ID NO: 98 in IgG1 f format)(P1-072224) and affinity matured mAbs to Compound A was examined by SPR (Biacore™) using a protein A capture method. The running buffer was 1×PBS (phosphate buffered saline, pH 7.4) with 0.05% Tween 20 and 2% DMSO. Binding experiments were carried out at 37° C. […] Apparent affinities were determined for rank ordering only since dissociation rates were too slow to be measured by Biacore. […]
pKd: −log10 of the molar value.
measured-quantity: pKd

1. 26D5-296-D03-mAb: human IgG1f/kappa mAb; VH SEQ ID NO: 76, VL SEQ ID NO: 88 (antibody, V domains shown) VH: EVQLVESGGGLIQPGGSLRLSCAASGFTVSSNYMSWVRQAPGKGLEWVSFIYSGGETFYADSVKGRFTISRDNSKNTLYLQMNSLRAEDTAVYYCARGGFGGGDYWGQGTLVTVSS VL: DIQMTQSPSSVSASVGDRVTITCRASQGISSNLAWYQQKPGKAPKLLIYAASSLQSGVPSRFSGSGSGTDFTLTISSLQPEDFATYYCQQANSFPLTFGGGTKVEIK | 9.15
2. 26D5-296-H03-mAb: human IgG1f/kappa mAb; VH SEQ ID NO: 63, VL SEQ ID NO: 88 (antibody, V domains shown) VH: EVQLVESGGGLIQPGGSLRLSCAASGFTVSSNAMSWVRQAPGKGLEWVSFIYPGGRTYYADSVKGRFTISRDNSKNTLYLQMNSLRAEDTAVYYCARGGFGGGDYWGQGTLVTVSS VL: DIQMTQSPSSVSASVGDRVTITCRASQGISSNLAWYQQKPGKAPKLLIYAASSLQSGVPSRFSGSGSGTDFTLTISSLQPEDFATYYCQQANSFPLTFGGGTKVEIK | 8.96
3. 26D5-295-A08-mAb: human IgG1f/kappa mAb; VH SEQ ID NO: 74, VL SEQ ID NO: 88 (antibody, V domains shown) VH: EVQLVESGGGLIQPGGSLRLSCAASGFTVSENYMSWVRQAPGKGLEWVSFIYPGGRTYYADSVKGRFTISRDNSKNTLYLQMNSLRAEDTAVYYCARAGFGGGDYWGQGTLVTVSS VL: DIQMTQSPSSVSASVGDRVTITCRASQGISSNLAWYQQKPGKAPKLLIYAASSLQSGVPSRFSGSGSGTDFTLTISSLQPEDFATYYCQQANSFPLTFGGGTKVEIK | 9.24
4. 26D5-296-C07-mAb: human IgG1f/kappa mAb; VH SEQ ID NO: 77, VL SEQ ID NO: 94 (antibody, V domains shown) VH: EVQLVESGGGLIQPGGSLRLSCAASGITVSSNYMSWVRQAPGKGLEWVSFIYSGGRTYYADSVKGRFTISRDNSKNTLYLQMNSLRAEDTAVYYCARGGFGGGDYWGQGTLVTVSS VL: DIQMTQSPSSVSASVGDRVTITCRASQYISSNLAWYQQKPGKAPKLLIYAASSLQSGVPSRFSGSGSGTDFTLTISSLQPEDFATYYCQQANSFPLTFGGGTKVEIK | 8.85
5. 26D5-296-B07-mAb: human IgG1f/kappa mAb; VH SEQ ID NO: 68, VL SEQ ID NO: 93 (antibody, V domains shown) VH: EVQLVESGGGLIQPGGSLRLSCAASGFQVSSNAMSWVRQAPGKGLEWVSFIYSGGRTYYADSVKGRFTISRDNSKNTLYLQMNSLRAEDTAVYYCARAGFGGGDYWGQGTLVTVSS VL: DIQMTQSPSSVSASVGDRVTITCRASQGISSWLAWYQQKPGKAPKLLIYAASSLQSGVPSRFSGSGSGTDFTLTISSLQPEDFATYYCQQHNSFPLTFGGGTKVEIK | 8.74
6. 26D5-296-G07-mAb: human IgG1f/kappa mAb; VH SEQ ID NO: 65, VL SEQ ID NO: 94 (antibody, V domains shown) VH: EVQLVESGGGLIQPGGSLRLSCAASGFTVSENYMSWVRQAPGKGLEWVSFIYSGGRTYYADSVKGRFTISRDNSKNTLYLQMNSLRAEDTAVYYCARAGFGGGDYWGQGTLVTVSS VL: DIQMTQSPSSVSASVGDRVTITCRASQYISSNLAWYQQKPGKAPKLLIYAASSLQSGVPSRFSGSGSGTDFTLTISSLQPEDFATYYCQQANSFPLTFGGGTKVEIK | 9.42
7. 26D5-295-D07-mAb: human IgG1f/kappa mAb; VH SEQ ID NO: 75, VL SEQ ID NO: 88 (antibody, V domains shown) VH: EVQLVESGGGLIQPGGSLRLSCAASGFQVSENYMSWVRQAPGKGLEWVSFIYSGGRTYYADSVKGRFTISRDNSKNTLYLQMNSLRAEDTAVYYCARGGFGGGDYWGQGTLVTVSS VL: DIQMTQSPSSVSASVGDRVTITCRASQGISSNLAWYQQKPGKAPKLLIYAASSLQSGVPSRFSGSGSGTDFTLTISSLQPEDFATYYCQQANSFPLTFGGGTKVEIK | 9.00
